tested on: Klebsiella 63; assay: Agar dilution test, minimum inhibitory concentration; format: cell-based; settings: test strain Klebsiella 63; Isosensitest-Agar (Oxoid), inoculum ca. 10^4 germs per inoculation point; read-out: Minimale Hemmkonzentrationen
Experimental Readout: MIC (µg/mL)

| Compound | Experimental System | Experimental Readout | Reported |
| --- | --- | --- | --- |
| C[C@@H]1CN(c2c(F)c(N)c3c(=O)c(C(=O)O)cn(C4CC4)c3c2F)C[C@H](C)N1 | Klebsiella 63 | MIC | 0.03 |
| Nc1c(F)c(-n2ccnc2)c(F)c2c1c(=O)c(C(=O)O)cn2C1CC1 | Klebsiella 63 | MIC | 0.06 |
| Nc1c(F)c(N2CCOCC2)c(F)c2c1c(=O)c(C(=O)O)cn2C1CC1 | Klebsiella 63 | MIC | 0.06 |
| CCN1CCN(c2c(F)c(N)c3c(=O)c(C(=O)O)cn(C4CC4)c3c2F)CC1 | Klebsiella 63 | MIC | 0.03 |
| Nc1c(F)c(N2CCN3CCC2C3)c(F)c2c1c(=O)c(C(=O)O)cn2C1CC1 (stereo not shown) | Klebsiella 63 | MIC | 0.03 |

[a] CN1CCN(c2c(F)c(N)c3c(=O)c(C(=O)O)cn(C4CC4)c3c2F)CC1
[b] Nc1c(F)c(N2CCN(CCO)CC2)c(F)c2c1c(=O)c(C(=O)O)cn2C1CC1
QUERY: Form: Entry with minimum MIC (choose one): a / b Write down the label attached to your selection.
RESULT: a
(a: 0.03 µg/mL, b: 0.06 µg/mL)
